study_system: Glucocorticoid receptor (Homo sapiens) (UniProt P04150)
Sequence (P04150 whole entry, looked up): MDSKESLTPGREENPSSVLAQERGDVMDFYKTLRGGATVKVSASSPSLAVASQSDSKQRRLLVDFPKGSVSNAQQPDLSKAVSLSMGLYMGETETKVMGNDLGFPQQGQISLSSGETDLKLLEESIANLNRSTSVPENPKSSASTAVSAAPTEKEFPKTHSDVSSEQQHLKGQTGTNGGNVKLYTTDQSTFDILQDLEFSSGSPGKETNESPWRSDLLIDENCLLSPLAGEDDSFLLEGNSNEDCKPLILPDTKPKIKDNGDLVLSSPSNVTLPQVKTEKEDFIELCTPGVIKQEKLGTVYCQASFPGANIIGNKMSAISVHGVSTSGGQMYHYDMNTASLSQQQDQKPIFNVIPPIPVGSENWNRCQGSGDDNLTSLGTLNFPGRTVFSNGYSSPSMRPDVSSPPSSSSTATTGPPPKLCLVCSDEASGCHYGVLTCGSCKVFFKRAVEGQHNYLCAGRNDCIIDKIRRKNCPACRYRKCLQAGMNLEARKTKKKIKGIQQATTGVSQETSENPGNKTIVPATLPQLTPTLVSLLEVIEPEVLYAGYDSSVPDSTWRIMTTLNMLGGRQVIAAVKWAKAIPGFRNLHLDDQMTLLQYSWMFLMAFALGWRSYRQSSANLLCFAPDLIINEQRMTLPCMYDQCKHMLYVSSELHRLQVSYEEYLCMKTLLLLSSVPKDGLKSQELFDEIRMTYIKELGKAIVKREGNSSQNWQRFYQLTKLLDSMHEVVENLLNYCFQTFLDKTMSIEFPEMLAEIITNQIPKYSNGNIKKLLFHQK
procedure_summary: qHTS assay to identify small molecule antagonists of the glucocorticoid receptor (GR) signaling pathway (AID 720692)
condition_set: GR-bla HeLa, beta-lactamase FRET ratio, dexamethasone-stimulated, 18 h; series mostly up to 58.5 µM
Results filed as inconclusive are left out. Activity calls are given as the source filed them. The call rests on the fitted dose curve; in most records, active means well fitted inhibition curve with a large enough effect in the signal ratio in the repeat runs (not every such curve was filed as active); inconclusive means weak or mixed curves, or effect the other way; inactive means no such curve, though single readings can be large or run the other way; the % refers to the signal ratio.
Outcome codes: YES (active), NO (inactive)

molecule | study_system | assigned_category
ClCc1ccc(Cl)cc1Cl | Glucocorticoid receptor (Homo sapiens) (UniProt P04150) | NO
S=C=Nc1cccc2ccccc12 | Glucocorticoid receptor (Homo sapiens) (UniProt P04150) | YES
Clc1ccc(CCC(Cn2ccnc2)Sc2c(Cl)cccc2Cl)cc1 (stereo not drawn) | Glucocorticoid receptor (Homo sapiens) (UniProt P04150) | NO

* * *

study_system: Vitamin D3 receptor (Homo sapiens) (UniProt P11473)
Sequence (P11473 whole entry, looked up): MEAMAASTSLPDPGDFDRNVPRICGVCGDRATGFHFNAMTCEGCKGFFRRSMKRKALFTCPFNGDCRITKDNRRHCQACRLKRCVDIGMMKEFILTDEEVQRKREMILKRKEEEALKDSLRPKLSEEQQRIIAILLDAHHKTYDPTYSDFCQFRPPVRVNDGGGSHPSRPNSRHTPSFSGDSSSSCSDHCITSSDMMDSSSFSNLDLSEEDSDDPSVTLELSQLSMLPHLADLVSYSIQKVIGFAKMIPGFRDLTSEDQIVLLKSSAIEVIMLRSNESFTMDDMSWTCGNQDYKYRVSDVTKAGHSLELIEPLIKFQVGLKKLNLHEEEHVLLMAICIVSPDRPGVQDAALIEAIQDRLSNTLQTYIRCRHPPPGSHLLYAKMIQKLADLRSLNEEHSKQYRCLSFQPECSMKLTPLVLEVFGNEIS
procedure_summary: qHTS assay to identify small molecule agonists of the vitamin D receptor (VDR) signaling pathway (AID 743222)
condition_set: HEK293T VDR-UAS-bla, beta-lactamase FRET ratio, 16 h; series mostly up to 63.5 µM
Source text: National Center for Advancing Translational Sciences [NCATS] NIH Chemical Genomics Center [NCGC] U.S. Environmental Protection Agency [EPA] National Institutes of Environmental Health Sciences [NIEHS] National Toxicology Program [NTP] U.S. Food and Drug Administration [FDA] The vitamin D receptor (VDR), a member of nuclear hormone receptor superfamily, plays a critical role in calcium homeostasis and bone metabolism. It is also involved in cell differentiation and growth, and thrombogenicity. […]
Inconclusive results are not listed. Calls of active or inactive are those of the source. The call rests on the fitted dose curve.
experimental_endpoint: outcome

compound | study_system | value_measured
Clc1ccc(C(Cl)(Cl)Cl)c(Cl)c1 | Vitamin D3 receptor (Homo sapiens) (UniProt P11473) | inactive
O=C(O)C1C2CCC(O2)C1C(=O)O (configuration not stated) | Vitamin D3 receptor (Homo sapiens) (UniProt P11473) | inactive
O=S(=O)(c1ccc(Cl)cc1)c1ccc(Cl)cc1 | Vitamin D3 receptor (Homo sapiens) (UniProt P11473) | inactive
Clc1ccc(-c2ccc(Cl)c(Cl)c2Cl)c(Cl)c1Cl | Vitamin D3 receptor (Homo sapiens) (UniProt P11473) | inactive
CCC(C)(C)C(=O)OC1=C(c2ccc(Cl)cc2Cl)C(=O)OC12CCCCC2 | Vitamin D3 receptor (Homo sapiens) (UniProt P11473) | inactive
CC(C)(C)OO | Vitamin D3 receptor (Homo sapiens) (UniProt P11473) | inactive
OC(c1ccc(Cl)cc1)(c1ccc(Cl)cc1)C(Cl)(Cl)Cl | Vitamin D3 receptor (Homo sapiens) (UniProt P11473) | inactive

* * *

procedure_summary: A CellTox Green Cytotoxicity Assay to monitor cytotoxicity in HEK293 cells - 24 hour (AID 1224875); further: nearly all actives have a fitted effect of over 45% in size; further: potency means the concentration at half of the fitted maximal effect
condition_set: CellTox Green fluorescence; series mostly up to 76.8 µM
Results filed as inconclusive are left out. Activity calls are given as the source filed them. Calls follow the shape of the dose curve; as a rule, active = well fitted activation curve with a large enough effect in the repeat runs; inconclusive = weak or mixed curves; inactive = flat fitted curve, though single readings scatter.

molecule | Potency
C[C@@H]1CC[C@@]2(OC1)O[C@H]1[C@@H](O)[C@H]3[C@@H]4CC[C@H]5C[C@@H](O[C@@H]6O[C@H](CO)[C@H](O[C@@H]7O[C@H](CO)[C@@H](O)[C@H](O[C@@H]8OC[C@@H](O)[C@H](O)[C@H]8O)[C@H]7O[C@@H]7O[C@H](CO)[C@@H](O)[C@H](O[C@@H]8O[C@H](CO)[C@@H](O)[C@H](O)[C@H]8O)[C@H]7O)[C@H](O)[C@H]6O)[C@H](O)C[C@]5(C)[C@H]4CC[C@]3(C)[C@H]1[C@@H]2C | 1310 nM (active)
CCC[CH2][Sn]([CH2]CCC)([CH2]CCC)[O]C(=O)c1ccccc1 | 1950 nM (active)
COP(=O)(CCC(=O)NCO)OC | inactive
CC(C)(C)C(O)C(Oc1ccc(-c2ccccc2)cc1)n1cncn1 (centres undefined) | inactive
C=CC(=O)N(C)C | inactive
CC(C)C1CCC(Cc2ccc(Cl)cc2)C1(O)Cn1cncn1 (centres undefined) | 24300 nM (active)
Cc1cc(Cl)ccc1O[C@H](C)C(=O)O | inactive
COP(N)(=S)OC | inactive
CC(C)CC(C)N (centres undefined) | inactive

Sourced from PubChem BioAssay (Tox21)
